// provenance: patent US8372967B2

Test system: rat DGAT2 mRNA
measurement_description: Dose-dependent inhibition of DGAT2 in A10 cells (Tables 82, 83)
Type: cell-based
conditions_used: 5.56 nM (Table 83)
Strand notation (5' to 3'): a small letter for the sugar, then the base; units joined by * are phosphorothioate-linked, units joined directly phosphodiester-linked; [ ] holds rarer units or linkages, { } end groups; capitals alone tell only the bases. e = 2'-O-(2-methoxyethyl) (MOE); [5mC] = 5-methylcytosine; d = 2'-deoxy (DNA)
Tick criterion met if percent inhibition of rat DGAT2 is 5% or greater. Tick criterion not met if percent inhibition of rat DGAT2 is less than 5%.

Check if percent inhibition of rat DGAT2 >= 5% (inclusive). Item: 372586 (antisense eG*eT*dT*d[5mC]*d[5mC]*dT*dG*dG*dT*dG*dG*dT*e[5mC]*eA) [compound 372586] criterion not met

Check if percent inhibition of rat DGAT2 >= 5% (inclusive). Item: 372546 (antisense eT*eT*eG*dG*dT*d[5mC]*dT*dT*dG*dT*dG*dA*dT*eT*eG*eT) [compound 372546] criterion met

Check if percent inhibition of rat DGAT2 >= 5% (inclusive). Item: 372503 (antisense eG*e[5mC]*eA*dG*dG*dT*dT*dG*dT*dG*dT*dG*dT*e[5mC]*eT*eT) [compound 372503] criterion not met

Check if percent inhibition of rat DGAT2 >= 5% (inclusive). Item: 372508 (antisense eA*eG*eT*dT*d[5mC]*d[5mC]*dT*dG*dG*dT*dG*dG*dT*e[5mC]*eA*eG) [compound 372508] criterion met

Check if percent inhibition of rat DGAT2 >= 5% (inclusive). Item: 372500 (antisense eG*eT*eG*dT*dG*dT*d[5mC]*dT*dT*d[5mC]*dA*d[5mC]*d[5mC]*eA*eG*e[5mC]) [compound 372500] criterion not met

Check if percent inhibition of rat DGAT2 >= 5% (inclusive). Item: 372501 (antisense eT*eT*eG*dT*dG*dT*dG*dT*d[5mC]*dT*dT*d[5mC]*dA*e[5mC]*e[5mC]*eA) [compound 372501] criterion met

Check if percent inhibition of rat DGAT2 >= 5% (inclusive). Item: 372516 (antisense eT*eA*e[5mC]*dA*dG*dA*dA*dG*dG*d[5mC]*dA*d[5mC]*d[5mC]*e[5mC]*eA*eG) [compound 372516] criterion not met

Check if percent inhibition of rat DGAT2 >= 5% (inclusive). Item: 372563 (antisense eA*eG*d[5mC]*d[5mC]*dA*dG*dG*dT*dG*dA*d[5mC]*dA*eG*eA) [compound 372563] criterion not met

Check if percent inhibition of rat DGAT2 >= 5% (inclusive). Item: 372530 (antisense eT*e[5mC]*eG*dG*d[5mC]*d[5mC]*d[5mC]*d[5mC]*dA*dG*dG*dA*dG*e[5mC]*e[5mC]*e[5mC]) [compound 372530] criterion not met

Check if percent inhibition of rat DGAT2 >= 5% (inclusive). Item: 372624 (antisense eT*eG*dG*dT*d[5mC]*dT*dT*dG*dT*dG*dA*dT*eT*eG) [compound 372624] criterion not met

Check if percent inhibition of rat DGAT2 >= 5% (inclusive). Item: 372618 (antisense eG*eT*dG*dG*dT*dA*d[5mC]*dA*dG*dG*dT*d[5mC]*eG*eA) [compound 372618] criterion not met

====

Tested on: rat DGAT2 mRNA
measurement_description: Dose-dependent inhibition of DGAT2 in A10 cells (Tables 82, 83)
Format: cell-based
conditions_used: 0.62 nM (Table 83)
Strand notation (5' to 3'): a small letter for the sugar, then the base; units joined by * are phosphorothioate-linked, units joined directly phosphodiester-linked; [ ] holds rarer units or linkages, { } end groups; capitals alone tell only the bases. e = 2'-O-(2-methoxyethyl) (MOE); [5mC] = 5-methylcytosine; d = 2'-deoxy (DNA)
endpoint_name: percent inhibition of rat DGAT2 (%)
Your answer should be a plain number; it is taken to be in %.

# return recorded percent inhibition of rat DGAT2 for entry 372563 (antisense eA*eG*d[5mC]*d[5mC]*dA*dG*dG*dT*dG*dA*d[5mC]*dA*eG*eA) [compound 372563] 0

# return recorded percent inhibition of rat DGAT2 for entry 372578 (antisense eT*eG*dT*dG*dT*d[5mC]*dT*dT*d[5mC]*dA*d[5mC]*d[5mC]*eA*eG) [compound 372578] 0

# return recorded percent inhibition of rat DGAT2 for entry 372580 (antisense eG*eG*dT*dT*dG*dT*dG*dT*dG*dT*d[5mC]*dT*eT*e[5mC]) [compound 372580] 0

# return recorded percent inhibition of rat DGAT2 for entry 372501 (antisense eT*eT*eG*dT*dG*dT*dG*dT*d[5mC]*dT*dT*d[5mC]*dA*e[5mC]*e[5mC]*eA) [compound 372501] 1

# return recorded percent inhibition of rat DGAT2 for entry 372624 (antisense eT*eG*dG*dT*d[5mC]*dT*dT*dG*dT*dG*dA*dT*eT*eG) [compound 372624] 0

# return recorded percent inhibition of rat DGAT2 for entry 372524 (antisense eG*e[5mC]*e[5mC]*dA*dG*dG*d[5mC]*dA*dT*dG*dG*dA*dG*e[5mC]*eT*e[5mC]) [compound 372524] 7

# return recorded percent inhibition of rat DGAT2 for entry 372586 (antisense eG*eT*dT*d[5mC]*d[5mC]*dT*dG*dG*dT*dG*dG*dT*e[5mC]*eA) [compound 372586] 0

====

System: PCSK9 mRNA
Assay type: cell-based, human
conditions_used: Hep3B cells, 100 nM, relative to untreated control cells, 0 = no reduction observed
Strand notation (5' to 3'): a small letter for the sugar, then the base; units joined by * are phosphorothioate-linked, units joined directly phosphodiester-linked; [ ] holds rarer units or linkages, { } end groups; capitals alone tell only the bases. e = 2'-O-(2-methoxyethyl) (MOE); [5mC] = 5-methylcytosine; d = 2'-deoxy (DNA)
endpoint_name: % Inhib (%)
Your answer should be a plain number; it is taken to be in %.

# return recorded % Inhib for entry 400309 (antisense e[5mC]*e[5mC]*d[5mC]*dG*dG*d[5mC]*d[5mC]*dG*d[5mC]*dT*dG*dA*e[5mC]*e[5mC]) [compound 400309] 44

# return recorded % Inhib for entry 400327 (antisense eG*eT*d[5mC]*d[5mC]*d[5mC]*d[5mC]*dA*dA*dA*dG*dT*d[5mC]*e[5mC]*e[5mC]) [compound 400327] 36

# return recorded % Inhib for entry 400355 (antisense eA*eG*dA*d[5mC]*dA*d[5mC]*d[5mC]*d[5mC]*dT*d[5mC]*dA*d[5mC]*e[5mC]*e[5mC]) [compound 400355] 0

# return recorded % Inhib for entry 400297 (antisense eA*eT*dG*dG*dG*dG*d[5mC]*dA*dA*d[5mC]*dT*dT*e[5mC]*eA) [compound 400297] 0

# return recorded % Inhib for entry 400299 (antisense eA*e[5mC]*dA*dT*dG*dG*dG*dG*d[5mC]*dA*dA*d[5mC]*eT*eT) [compound 400299] 0

# return recorded % Inhib for entry 400342 (antisense eG*eT*dG*d[5mC]*dT*dG*dG*dG*dG*dG*dG*d[5mC]*eA*eG) [compound 400342] 0

# return recorded % Inhib for entry 400348 (antisense eT*eG*dG*dA*dG*d[5mC]*dA*dG*d[5mC]*dT*d[5mC]*dA*eG*e[5mC]) [compound 400348] 0

# return recorded % Inhib for entry 400341 (antisense eG*e[5mC]*dT*dG*dG*dT*d[5mC]*d[5mC]*dT*d[5mC]*dA*dG*eG*eG) [compound 400341] 0

# return recorded % Inhib for entry 400354 (antisense eG*eA*d[5mC]*dA*d[5mC]*d[5mC]*d[5mC]*dT*d[5mC]*dA*d[5mC]*d[5mC]*e[5mC]*e[5mC]) [compound 400354] 19

# return recorded % Inhib for entry 400304 (antisense eG*eA*dG*dA*dT*dA*d[5mC]*dA*d[5mC]*d[5mC]*dT*d[5mC]*e[5mC]*eA) [compound 400304] 11

# return recorded % Inhib for entry 400358 (antisense eA*eT*dG*dG*d[5mC]*dA*dG*d[5mC]*dA*dG*dG*dA*eA*eG) [compound 400358] 12

# return recorded % Inhib for entry 400362 (antisense e[5mC]*eG*dG*d[5mC]*dA*dG*d[5mC]*dA*dG*dA*dT*dG*eG*e[5mC]) [compound 400362] 16

# return recorded % Inhib for entry 400315 (antisense eA*eT*dG*dA*dG*dG*dG*dT*dG*d[5mC]*d[5mC]*dG*e[5mC]*eT) [compound 400315] 0

====

Test system: rat SGLT2 mRNA
measurement_description: Rat SGLT2 mRNA in kidney, 1-10-1 and 1-10-2 MOE gapmers, Sprague-Dawley rats (Table 63)
Assay type: in vivo
conditions_used: 150 nmol/kg i.p. twice per week for three weeks
Strand notation (5' to 3'): a small letter for the sugar, then the base; units joined by * are phosphorothioate-linked, units joined directly phosphodiester-linked; [ ] holds rarer units or linkages, { } end groups; capitals alone tell only the bases. e = 2'-O-(2-methoxyethyl) (MOE); [5mC] = 5-methylcytosine; d = 2'-deoxy (DNA)
endpoint_name: % change in SGLT2 expression relative to saline (%)
Your answer should be a plain number; it is taken to be in %.

# return recorded % change in SGLT2 expression relative to saline for entry ISIS 379699: GGCATGAGCTTC 1-10-1 MOE, SGLT2 (eG*dG*d[5mC]*dA*dT*dG*dA*dG*d[5mC]*dT*dT*e[5mC]) −75

# return recorded % change in SGLT2 expression relative to saline for entry ISIS 370717: TAGCCACCAACT 1-10-1 MOE gapmer, phosphorothioate, SGLT-2 (sugars from the 5' end e1 d10 e1, all phosphorothioate, methylation of C not given here) −70

# return recorded % change in SGLT2 expression relative to saline for entry ISIS 382675 (eT*dA*dG*d[5mC]*d[5mC]*dA*d[5mC]*d[5mC]*dA*dA*d[5mC]*eT*eG) −65

# return recorded % change in SGLT2 expression relative to saline for entry ISIS 379692: 1-10-1 MOE gapmer, SGLT2 (eT*dG*dT*dT*d[5mC]*d[5mC]*dA*dG*d[5mC]*d[5mC]*d[5mC]*eA) −85
